# protocol_text: HCT116 colon cancer cell growth inhibition, primary screen, CellTiter-Glo luminescence, NPC library (AID 1117342)
# details: at 20 µM (top of the series)
value_kind: inhibition of viability (%)
Just the number please, in %, no unit attached.

## Input Given Cc1ccc(NC(=O)c2ccc(CN3CCN(C)CC3)cc2)cc1Nc1nccc(-c2cccnc2)n1 , state its recorded inhibition of viability.
## Output 98

====

# protocol_text: glutamate transport activators, MN-1 cells, MN-1 cell line (AID 1612);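 further: tested at 1 µM final; 0% = mean of DMSO vehicle wells on each plate; positive means more glutamate uptake than control and negative means less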
# details: MN-1 motor neuron cells, stronger effect = higher value
value_kind: glutamate uptake change (%)
Hi! Could you send only the number? It should be in %, unit omitted.

Here's what some known entries look like.
compound	value_kind	unit_abbrev	obs_value
O=C(COc1ccc(Cl)cc1)N1CCN(Cc2ccc3c(c2)OCO3)CC1	glutamate uptake change	%	0.58
O=C1c2c(O)cccc2Cc2cccc(O)c21	glutamate uptake change	%	5.46
COc1ccc(CCN2CCC(Nc3nc4ccccc4n3Cc3ccc(F)cc3)CC2)cc1	glutamate uptake change	%	31.2
C=Cc1c(C)c2cc3[nH]c(cc4nc(cc5nc(cc1[nH]2)C(C)=C5CCC(=O)O)C(CCC(=O)O)=C4C)c(C)c3C=C	glutamate uptake change	%	5.14
O=C1CC2(CCCC2)CC(=O)N1CCCCN1CCN(c2ncccn2)CC1	glutamate uptake change	%	15.2

Consider now this further compound.
## Input Endpoint output: glutamate uptake change of Cc1cc(=O)n(-c2ccccc2)n1C . Value?
## Output -12.9
